These data points were gathered from paper PMC4045308.

Assay: phase I study: plasma pharmacokinetics
Format: in vivo, patients
Details: human, plasma, oral, 50 mg, ECT 50 mg BID, 7-day schedule, Day 7, N 7; read-out: Median Tmax (range)
measured property: Tmax (h)
The answer is to be given in h; state only the numeric part.

# compound COc1cc(Nc2ncc3c(n2)-c2ccc(Cl)cc2C(c2c(F)cccc2OC)=NC3)ccc1C(=O)O ; its Tmax = 2

----------
Assay: phase I study: plasma pharmacokinetics
Format: in vivo, patients
Details: human, plasma, oral, 40 mg, ECT 40 mg BID, 7-day schedule, Day 1, first dose, N 9; read-out: Median Tmax (range)
measured property: Tmax (h)
The answer is to be given in h; state only the numeric part.

Per the records, this compound ( COc1cc(Nc2ncc3c(n2)-c2ccc(Cl)cc2C(c2c(F)cccc2OC)=NC3)ccc1C(=O)O [MLN8237, alisertib] ) has Tmax equal to 2.2
